B1: library; a variant is named by its letters at N, in order (parent)
chain: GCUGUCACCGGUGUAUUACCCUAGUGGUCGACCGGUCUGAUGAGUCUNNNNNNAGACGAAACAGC

variants of: B1; assay: normalized RNA/DNA level with ligand (relative to sTRSVctl = 100) (log10 (% of sTRSVctl)); ligand: hypoxanthine (xanthine aptamer); higher = less ribozyme self-cleavage, higher mRNA level; settings: ligand concentration (+) RNA-Seq: 5 mM, HEK293T, reporter: mCherry (pCS4076), ligand present: yes
Some variants, each annotated with its measured normalized RNA/DNA level with ligand (log10).
// return just the number, without any unit appended

Use these answered entries as a reference point.
GAUUGA :: 1.92
CACACA :: 1.9
GGUUAA :: 1.93
CGUUGU :: 1.98
CCAUGC :: 1.95
UCCGCG :: 1.89
UAGUAU :: 1.93
GCCUGG :: 1.94

In: Please indicate normalized RNA/DNA level with ligand (log10) recorded for AAGGCG
Out: 1.77
